- systemTested: Dual specificity mitogen-activated protein kinase kinase 6 (Homo sapiens, UniProt P52564); also: in the data inactive means no Kd found up to 30 µM
- Sequence (P52564 whole entry): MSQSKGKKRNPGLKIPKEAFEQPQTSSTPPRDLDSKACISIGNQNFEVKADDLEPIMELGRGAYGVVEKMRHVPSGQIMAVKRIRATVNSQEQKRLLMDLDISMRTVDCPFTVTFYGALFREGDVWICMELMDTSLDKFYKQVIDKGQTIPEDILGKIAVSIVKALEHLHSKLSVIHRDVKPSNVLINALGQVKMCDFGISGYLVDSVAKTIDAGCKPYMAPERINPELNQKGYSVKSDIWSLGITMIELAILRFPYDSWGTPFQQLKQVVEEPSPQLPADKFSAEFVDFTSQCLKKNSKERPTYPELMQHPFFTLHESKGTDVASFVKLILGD
Calls of active or inactive are those of the source.
Reply using exactly one outcome from active, inactive

These solved cases illustrate the format of a correct answer.
[
  {
    "compound": "Cc1c(NC(=O)OC[C@@H]2COCCN2)cn2ncnc(Nc3ccc4c(cnn4Cc4cccc(F)c4)c3)c12",
    "assignedLabel": "inactive"
  },
  {
    "compound": "c1cc(OCCN2CCCCC2)cc(-c2n[nH]c3ccc(-c4nc[nH]n4)cc23)c1",
    "assignedLabel": "inactive"
  },
  {
    "compound": "COc1cc2ncnc3c2cc1OCCCCCN(C)Cc1ccc(Br)cc1N3",
    "assignedLabel": "inactive"
  },
  {
    "compound": "Cc1cc(C(=O)Nc2cc(Oc3ccc4nc(NC(=O)C5CC5)cn4n3)ccc2C)n(C)n1",
    "assignedLabel": "inactive"
  },
  {
    "compound": "CC[C@@](C)(Nc1ccnc(-c2c[nH]c3ncccc23)n1)C(=O)NCC(F)(F)F",
    "assignedLabel": "inactive"
  },
  {
    "compound": "Cn1c(=O)n(-c2ccc(C(C)(C)C#N)cc2)c2c3cc(-c4cnc5ccccc5c4)ccc3ncc21",
    "assignedLabel": "inactive"
  },
  {
    "compound": "COCCN1CCN(Cc2ccc(-c3n[nH]c4c3C(=O)c3c(NC(=O)NN5CCOCC5)cccc3-4)cc2)CC1",
    "assignedLabel": "active"
  },
  {
    "compound": "O=S(=O)(c1cccc2c(O)nccc12)N1CCCNCC1 [HYDROXYFASUDIL]",
    "assignedLabel": "inactive"
  }
]

Ask: Hi team, can someone confirm the assay call for "Cc1c(Cn2c(C)nc3c(C(=O)O)cc(N4CCOCC4)cc32)cccc1C(F)(F)F" ?
Result: inactive

Ask: Hi team, can someone confirm the assay call for "O=C(NOC[C@H](O)CO)c1ccc(F)c(F)c1Nc1ccc(I)cc1F" ?
Result: inactive

Ask: Hi team, can someone confirm the assay call for COc1ccc(-c2ccc3ncc4c(c3c2)n(-c2ccc(N3CCNCC3)c(C(F)(F)F)c2)c(=O)n4C)cn1 [BGT-226 FREE BASE] ?
Result: inactive

Ask: Hi team, can someone confirm the assay call for "Cn1c(=O)c(F)c(Nc2ccc(I)cc2F)c2c(=O)n(C[C@@H](O)CO)cnc21" ?
Result: inactive

Ask: Hi team, can someone confirm the assay call for "C=CC(=O)Nc1cccc(Nc2nc(Nc3ccc(N4CCN(C(C)=O)CC4)cc3OC)ncc2C(F)(F)F)c1" ?
Result: inactive

Ask: Hi team, can someone confirm the assay call for "CCc1nc(C(N)=O)c(Nc2ccc(N3CCC(N4CCN(C)CC4)CC3)c(OC)c2)nc1NC1CCOCC1" ?
Result: active

Ask: Hi team, can someone confirm the assay call for COc1cc2ncnc(Nc3ccc(F)c(Cl)c3)c2cc1NC(=O)/C=C/CN1CCCCC1 [DACOMITINIB ANHYDROUS] ?
Result: inactive

Ask: Hi team, can someone confirm the assay call for "Cn1cc(-c2[nH]c3cc(NC(=O)[C@H](N)C4CCCCC4)cc4c3c2C=NNC4=O)cn1" ?
Result: inactive
